target: T1, Rat tail collagen type I (rat, UniProt P02454 152-1207; P02466 86-1125); test: solid-phase collagen binding assay (fluorescence of bound probe, plate reader); rat tail collagen type I or BSA immobilised in wells of a 96-well plate, blocked with 2% BSA; probe dilutions 0.1–50 µM, 1–1.5 hours at room temperature; 20 mM HEPES pH 7.2, 150 mM NaCl; apparent overall Kd; details: both partners purified
T1 construct: collagen alpha-1(I) chain, rat; collagen alpha-2(I) chain, rat; Immobilised as a collagen matrix formed on pH neutralisation; source: bought: Sigma-Aldrich, cat. no; C7661
T1 sequence (P02454 152-1207, chain 1 of 2): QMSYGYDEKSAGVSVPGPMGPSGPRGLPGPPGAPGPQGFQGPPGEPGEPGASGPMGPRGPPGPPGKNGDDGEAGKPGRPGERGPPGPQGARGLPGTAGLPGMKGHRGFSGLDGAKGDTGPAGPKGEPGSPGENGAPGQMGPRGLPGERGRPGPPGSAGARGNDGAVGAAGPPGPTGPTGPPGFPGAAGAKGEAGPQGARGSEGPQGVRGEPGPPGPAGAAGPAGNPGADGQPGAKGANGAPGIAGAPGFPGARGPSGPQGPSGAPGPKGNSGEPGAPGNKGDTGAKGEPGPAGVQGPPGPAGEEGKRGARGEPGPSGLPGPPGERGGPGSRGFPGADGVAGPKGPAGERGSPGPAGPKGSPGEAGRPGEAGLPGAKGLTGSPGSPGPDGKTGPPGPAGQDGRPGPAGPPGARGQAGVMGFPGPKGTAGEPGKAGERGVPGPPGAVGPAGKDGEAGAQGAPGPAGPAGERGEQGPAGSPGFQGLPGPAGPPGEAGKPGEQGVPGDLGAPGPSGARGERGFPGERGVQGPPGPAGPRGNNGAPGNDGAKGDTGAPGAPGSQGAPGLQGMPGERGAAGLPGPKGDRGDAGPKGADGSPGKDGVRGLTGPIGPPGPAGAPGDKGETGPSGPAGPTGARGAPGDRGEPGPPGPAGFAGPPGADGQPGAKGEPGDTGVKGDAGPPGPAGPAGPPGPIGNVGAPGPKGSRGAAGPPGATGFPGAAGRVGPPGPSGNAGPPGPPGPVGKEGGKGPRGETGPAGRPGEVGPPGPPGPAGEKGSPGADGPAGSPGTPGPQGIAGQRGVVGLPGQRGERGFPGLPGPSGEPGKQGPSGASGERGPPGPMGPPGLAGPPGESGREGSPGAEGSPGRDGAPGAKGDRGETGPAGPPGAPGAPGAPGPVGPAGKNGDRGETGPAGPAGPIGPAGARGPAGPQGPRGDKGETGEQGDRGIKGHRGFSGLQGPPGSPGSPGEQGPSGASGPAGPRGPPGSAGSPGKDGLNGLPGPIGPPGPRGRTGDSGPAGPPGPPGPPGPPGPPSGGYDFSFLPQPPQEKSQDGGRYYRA
T1 sequence (P02466 86-1125, chain 2 of 2): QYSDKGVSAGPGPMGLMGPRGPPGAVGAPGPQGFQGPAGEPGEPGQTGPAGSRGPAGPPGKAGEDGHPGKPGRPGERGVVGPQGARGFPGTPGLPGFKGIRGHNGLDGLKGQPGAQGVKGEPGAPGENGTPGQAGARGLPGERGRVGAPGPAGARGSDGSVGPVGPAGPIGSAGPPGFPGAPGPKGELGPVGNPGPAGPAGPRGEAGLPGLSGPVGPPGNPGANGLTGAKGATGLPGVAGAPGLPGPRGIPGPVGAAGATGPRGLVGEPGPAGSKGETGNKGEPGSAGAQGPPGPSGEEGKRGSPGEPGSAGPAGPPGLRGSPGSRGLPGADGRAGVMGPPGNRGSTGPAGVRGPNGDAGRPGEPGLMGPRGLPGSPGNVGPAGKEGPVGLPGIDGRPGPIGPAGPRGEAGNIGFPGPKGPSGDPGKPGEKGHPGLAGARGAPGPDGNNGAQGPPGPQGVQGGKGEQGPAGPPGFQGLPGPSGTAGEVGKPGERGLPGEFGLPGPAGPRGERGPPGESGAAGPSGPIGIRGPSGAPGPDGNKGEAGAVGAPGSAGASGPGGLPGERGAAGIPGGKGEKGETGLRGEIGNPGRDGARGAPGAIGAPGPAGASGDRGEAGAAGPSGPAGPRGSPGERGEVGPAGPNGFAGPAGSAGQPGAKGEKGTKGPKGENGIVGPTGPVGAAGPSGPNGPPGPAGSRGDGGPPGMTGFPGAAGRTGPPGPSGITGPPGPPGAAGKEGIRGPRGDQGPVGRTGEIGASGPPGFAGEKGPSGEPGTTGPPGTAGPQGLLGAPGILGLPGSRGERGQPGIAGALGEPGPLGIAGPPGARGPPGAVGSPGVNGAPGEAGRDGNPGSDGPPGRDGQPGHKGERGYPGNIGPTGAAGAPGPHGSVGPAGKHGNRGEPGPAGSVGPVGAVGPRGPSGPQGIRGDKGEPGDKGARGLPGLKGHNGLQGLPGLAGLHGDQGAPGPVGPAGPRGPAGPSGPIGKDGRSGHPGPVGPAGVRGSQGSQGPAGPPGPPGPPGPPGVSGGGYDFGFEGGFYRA
recorded endpoint: Kd

// Kd value for EGFP-CNA35 (domain or fragment, CNA35: domains N1 and N2 of the A-region of Staphylococcus aureus collagen adhesion protein, amino acids 30-344; Order: His-tag, thrombin cleavage site, EGFP, flexible linkage of about 20 amino acids, CNA35; 65.0 kDa; also called N-terminal fusion of EGFP to CNA35; not shown: EGFP, N-terminal, kept) ARDISSTNVTDLTVSPSKIEDGGKTTVKMTFDDKNGKIQNGDMIKVAWPTSGTVKIEGYSKTVPLTVKGEQVGQAVITPDGATITFNDKVEKLSDVSGFAEFEVQGRNLTQTNTSDDKVATITSGNKSTNVTVHKSEAGTSSVFYYKTGDMLPEDTTHVRWFLNINNEKSYVSKDITIKDQIQGGQQLDLSTLNINVTGTHSNYYSGQSAITDFEKAFPGSKITVDNTKNTIDVTIPQGYGSYNSFSINYKTKITNEQQKEFVNNSQAWYQEHGKEEVNGKSFNHTVHNINANAGIEGTVKGELKVLKQDKDTKA : ~1 µM
